// provenance: the supplement of paper PMC10567573

B1: TRAF3IP2 (parent)
chain: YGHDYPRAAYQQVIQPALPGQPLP

Variants of: B1
Experimental details: protein stability index of a GFP-peptide fusion (GPS, HEK-293T) (PSI 1-6); higher = more stable;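 further: lentivirally expressed fusions sorted by FACS into six bins by GFP to DsRed ratio, PSI derived from sequencing read proportions per bin multiplied by bin number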
Condition summary: c terminus: a fixed tail appended
Could you please report measured protein stability index for the items listed next?
Reply briefly: the number, and no unit.

Data point: YGHDYPRAAYQQVIQPALPGQDLP [P22D] ; protein stability index = 1.34

Data point: YGHDYPRAAYQQVIQPALRGQPLP [P19R] ; protein stability index = 1.76

Data point: YGHDYPRADYQQVIQPALPGQPLP [A9D] ; protein stability index = 2.74

Data point: YGHDYPRAAYQQVIQPALHGQPLP [P19H] ; protein stability index = 1.65

Data point: YGHDYPRAAYQQQIQPALPGQPLP [V13Q] ; protein stability index = 2.25

Data point: YGHDYPRAAYQFVIQPALPGQPLP [Q12F] ; protein stability index = 2.56

Data point: YGEDYPRAAYQQVIQPALPGQPLP [H3E] ; protein stability index = 2.5

Data point: YGHDYPRAAYQQVIQPALPGPPLP [Q21P] ; protein stability index = 2.95

Data point: YGHDNPRAAYQQVIQPALPGQPLP [Y5N] ; protein stability index = 3.73

Data point: YGHDYPRAAYQQVIQCALPGQPLP [P16C] ; protein stability index = 2.35

Data point: YGHDYPRAAYQQVIDPALPGQPLP [Q15D] ; protein stability index = 2.6

Data point: YGHDYPRAKYQQVIQPALPGQPLP [A9K] ; protein stability index = 2.4

Data point: YGHDYPRTAYQQVIQPALPGQPLP [A8T] ; protein stability index = 2.8

Data point: YGHDYPRAPYQQVIQPALPGQPLP [A9P] ; protein stability index = 2.11

Data point: YLHDYPRAAYQQVIQPALPGQPLP [G2L] ; protein stability index = 2.6

Data point: YGHDYPRAAYQQVIQPCLPGQPLP [A17C] ; protein stability index = 2.32

Data point: YGHDYPRAAYQQHIQPALPGQPLP [V13H] ; protein stability index = 2.02

Data point: YGHDYPRAAYQQVIQPALPGQPEP [L23E] ; protein stability index = 1.8

Data point: YGHDYPRAAYQQVIQPALPGQPFP [L23F] ; protein stability index = 2.15

Data point: YGHDYPRAAYQQVIQPANPGQPLP [L18N] ; protein stability index = 2.25

Data point: YGHDYPRAAYQQVIQPAYPGQPLP [L18Y] ; protein stability index = 2.26

Data point: YGHDYPRAAYQQVIQPALPGQCLP [P22C] ; protein stability index = 1.62

Data point: YGHDYPRAAYQQVIWPALPGQPLP [Q15W] ; protein stability index = 3.01

Data point: YGHDYPRAAYQQVIQYALPGQPLP [P16Y] ; protein stability index = 2.81

Data point: YGHDYPRAAYQYVIQPALPGQPLP [Q12Y] ; protein stability index = 2.61

Data point: YGHDYPRAAYQQVIQPALPGQPKP [L23K] ; protein stability index = 2.2

Data point: YGHDYPRAAYQQVIQPALPGQPCP [L23C] ; protein stability index = 2.21

Data point: YGHDYPRAAYQQVIQPSLPGQPLP [A17S] ; protein stability index = 2.43

Data point: WGHDYPRAAYQQVIQPALPGQPLP [Y1W] ; protein stability index = 2.68

Data point: YGHDYPRAACQQVIQPALPGQPLP [Y10C] ; protein stability index = 2.39

Data point: YGHDYPRAAYQQVIQPALPGQELP [P22E] ; protein stability index = 1.71

Data point: YGHDRPRAAYQQVIQPALPGQPLP [Y5R] ; protein stability index = 3.49

Data point: YGHDYPRAAYQQVIQPALPGQALP [P22A] ; protein stability index = 1.93

Data point: YGHDYPRAAYQQAIQPALPGQPLP [V13A] ; protein stability index = 2.17

Data point: YGHDFPRAAYQQVIQPALPGQPLP [Y5F] ; protein stability index = 2.52

Data point: YGHDWPRAAYQQVIQPALPGQPLP [Y5W] ; protein stability index = 3.66

Data point: YGHDYPRYAYQQVIQPALPGQPLP [A8Y] ; protein stability index = 2.24

Data point: YGHDYPRAAYQQVIQPALPGYPLP [Q21Y] ; protein stability index = 1.88

Data point: YGHDYPRAAYQQNIQPALPGQPLP [V13N] ; protein stability index = 2.09

Data point: HGHDYPRAAYQQVIQPALPGQPLP [Y1H] ; protein stability index = 4.03

Data point: YGHSYPRAAYQQVIQPALPGQPLP [D4S] ; protein stability index = 2.07

Data point: YGHDYPRAAYQQVIQPALPRQPLP [G20R] ; protein stability index = 1.52

Data point: YGHDYPRAAYQQVIQPALPGKPLP [Q21K] ; protein stability index = 2.21

Data point: YGHDYPRAAYQQVIQPALPQQPLP [G20Q] ; protein stability index = 2.04

Data point: YGCDYPRAAYQQVIQPALPGQPLP [H3C] ; protein stability index = 1.86

Data point: YGHDYPRAAYQQVIQPALMGQPLP [P19M] ; protein stability index = 2.34

Data point: YGHDYPSAAYQQVIQPALPGQPLP [R7S] ; protein stability index = 2.65

Data point: YGHDMPRAAYQQVIQPALPGQPLP [Y5M] ; protein stability index = 3.27

Data point: YGHDYPRAAYQQVIEPALPGQPLP [Q15E] ; protein stability index = 2.1

Data point: YGHDYPRAAYSQVIQPALPGQPLP [Q11S] ; protein stability index = 2.15

Data point: YGHDYPRAAYQAVIQPALPGQPLP [Q12A] ; protein stability index = 1.96

Data point: YTHDYPRAAYQQVIQPALPGQPLP [G2T] ; protein stability index = 2.27

Data point: YGHDYPRAAYQQVIGPALPGQPLP [Q15G] ; protein stability index = 2.42

Data point: YGHDYPRAAYQQVIQPALPGQYLP [P22Y] ; protein stability index = 1.75

Data point: YGHDYPRAAYQQVIQPALPMQPLP [G20M] ; protein stability index = 2.27

Data point: YGHDYPRAAYQQVIQPALPGFPLP [Q21F] ; protein stability index = 1.65

Data point: YGHDYPRAAYQQVLQPALPGQPLP [I14L] ; protein stability index = 1.77

Data point: YGHDYPRAAYLQVIQPALPGQPLP [Q11L] ; protein stability index = 3.77

Data point: YGHDYPRAAYQQVIQPALPGQPLY [P24Y] ; protein stability index = 1.6

Data point: YGHDYQRAAYQQVIQPALPGQPLP [P6Q] ; protein stability index = 2.27

Data point: YGHDYPRAAYQQVIAPALPGQPLP [Q15A] ; protein stability index = 1.74

Data point: YGHDYPRAAYQQVFQPALPGQPLP [I14F] ; protein stability index = 2.01

Data point: MGHDYPRAAYQQVIQPALPGQPLP [Y1M] ; protein stability index = 3.31

Data point: YGTDYPRAAYQQVIQPALPGQPLP [H3T] ; protein stability index = 1.73

Data point: YGHDYPRAAYQQVIRPALPGQPLP [Q15R] ; protein stability index = 2.24

Data point: YGHDYPRAAYQQVIQPALPHQPLP [G20H] ; protein stability index = 2.33

Data point: YGHDYPRAAEQQVIQPALPGQPLP [Y10E] ; protein stability index = 2.17

Data point: YGHDYPRAAYQQVIQPALPGQVLP [P22V] ; protein stability index = 1.8

Data point: YGHDYPRAAYQQVIQPALPLQPLP [G20L] ; protein stability index = 1.38

Data point: YGHDYPRAAYQQVIQIALPGQPLP [P16I] ; protein stability index = 2.79

Data point: YGHDYPRAAYVQVIQPALPGQPLP [Q11V] ; protein stability index = 2.31

Data point: YGHDYPRAAYQQVIQPAVPGQPLP [L18V] ; protein stability index = 1.65

Data point: YGHDYPRAAYQQVIQPALPCQPLP [G20C] ; protein stability index = 2.04

Data point: YGHDYPRAAYQQVIQPADPGQPLP [L18D] ; protein stability index = 2.17

Data point: YEHDYPRAAYQQVIQPALPGQPLP [G2E] ; protein stability index = 3.78
